- PROCEDURE_TEXT: Urinary excretion of compound in mouse at 20 mg/kg, iv administered with 10 mg/kg cilastatin
- Assay type: ADME, organism-based
- DETAILS: urine, read-out: Activity
VALUE_KIND: dose excreted (%)
Numbers only, in %.

Item: CSc1c2sc(C3=C(C(=O)[O-])N4C(=O)[C@H]([C@@H](C)O)[C@H]4[C@H]3C)cn2c[n+]1C[C@H](O)CN | dose excreted: 41.9

###

- PROCEDURE_TEXT: AUC (0-infinity) in mouse at 20 mg/kg, iv administered with 10 mg/kg cilastatin
- Type: ADME, organism-based
- Parameters: dose 20 mg/kg, route intravenous, time infinity
- DETAILS: plasma
VALUE_KIND: AUC(0-inf) (ng·h/mL)
Numbers only, in ng·h/mL.

Given item CSc1c2sc(C3=C(C(=O)[O-])N4C(=O)[C@H]([C@@H](C)O)[C@H]4[C@H]3C)cn2c[n+]1C[C@H](O)CN , the value recorded as its AUC(0-inf) is 12600
